procedure details: soluble on expression in E. coli; label from the status in PepcDB or PDB records
measured metric: soluble on expression in E. coli

Here is how some sequences turned out for soluble on expression in E. coli.
query_sequence=MMSLREKLIRELRRRGPIGIDQYEIEELMGFSKSTASEALSKLEAEGIIARRQISGRSKRVWLREFIPYRDPEMIRIGCLKSTEYAGFLSAAKDYCENKGIKAVIRFYNDATSILHDLSTGTLEFGLSPIFTETLFALSRHDIVIAGPVASGGSGIFENPASCENIVATSESTSMMLLSREFRRREGDVKITIFSDPIKASDGFRAGDFRYIAIWEPYASVIGANKLYDYSDLMDTFPCCGIAVSSGRSKDADLKSIIDAYRETDVEIRSDVIDMLSKATRCSKRAVMNSLGSYNFKLKYDMQTILRYMDFIGYPASEDAIKKVFLL result=soluble
query_sequence=MSLLDIERVREQQRPLPISKIRAQQSHTSFQGVFEEIAGHKSEKTVYAILETLEKDGERLAKHRTAAELHAFKRSVRQCVSHLLESLKVETASSAASGQVRQYKLVKEIDKGLVELTNAVFDQSKSELDLLNKIGELQGLIIQLYLEGHHHHHH result=soluble
query_sequence=MGSDKIHHHHHHMEYNDVVEAVISALKKAHTELPEDVVTAIKKAYDSEENDIAKRNLEAILKNIEAAKKLGVPMCQDTGIPVFFVEVGRELCLDFDLKEAIVEGVRKATAEIPLRPNAVHPITRENSGDNTGLGIPQINVELVKGDELRMVVMPKGAGSENVSALKMMLPTQVDKIKDFVVETVKNAGGKPCPPIFVGVGVGSTFDGAAKLAKKALLRNVLEMNDFELELLEAVNELGIGAMGLGGKYTALAVLVEFGHCHTASLPVAVNIQCWANRRAEVVLR result="not soluble"
query_sequence=PQEKLIFTLDSADRAYRVLVEAMNEGTATLASDGTILYCNRQFAELTKMSSGAVVGTSIYGFIAPEDAITFKALLKQKNSVGELKFRAQGGTSVPVYLSISSLQSEGSPSAWCLVVTDL result="not soluble"
query_sequence=MGSDKIHHHHHHMIIIIDEASAKLASFYYHDEIFKPQWKCAADMSSASDELHDEFQEKLQEKLPDELREKLYVVLPADESINDFQKTTIQESADNTAKANTGNLRIPKAPTDCIWIVSDRQQKQIADSLGIASVGEPQCGTRYAVESLAELDIEYLERVRRRYNHIPWDIGETDRCLIRELSLADLPALYELYDKPGMTDFVEPLYDYETELEYQKAYIENMYDFYEYGMWLVFSKETGKLIGRAGLEHNEMGYMIAPEFQNLGYATEVCRFIVDYARKNTDFEELYCRIDEKNVASVRLAKRLGFVRNGQIGNERNTGGLDRYVLSI result="not soluble"

Lab note: next sequence to report on.
Form field soluble on expression in E. coli, entry `MGSDKIHHHHHHLKEAILSPRFYTTDFKAIDRLEIDRNGLRDEFDWIRDEFAYDYNRTHFRRTDEFLQDFDDMPERDSFIDFLERSCTAEFSGCLLYAEMVKHLHDPTLRAIFKYMSRDEGRHAGFLNRTMADLNVALDLTVLQKRKKYTYFQPKFIFYSVYLSEKIGYSRYITIYRHLERNPQYCIHPIFKWFEQWCNDEYRHGEFFALLMRSQPEMLEGVNRRWIRFFLLAVYATMYLNDARRSNFYAALGLDWRDYDQTVIRLCNDIATQVYPETMNLDDPRFFAYMDKLVEYDRALRALESRKDPIAMAHSTRLKAAIALRLLAIYRLPTRKTTEAIRWKGLPGFPNYPGPNRPQRVVAAD` : not soluble
